The measurements presented in this section are drawn from patent US9238039B2.

Measured inhibition at 0.5 µM of individual entries
- System: RSV strain A2
- test_protocol: RSV antiviral cytoprotection assay in Hep2 cells (96-well and 384-well format, Cell TiterGlo read-out)
- Assay type: cell-based, Respiratory Syncytial Virus (RSV)
- setup_conditions: human respiratory syncytial virus, HEp-2, 0.5 uM; RSV-induced cytopathic effect in Hep2 cells; calculated from fitted dose response curve, normalized to 0% and 100%
Reply with just the number (in %).

Record excerpt, results attached:
# structure_notation, inhibition at 0.5 µM / %
measured = [
    ("Cc1cc(C2CC2)nc2cc([C@@H]3CCCCN3C(=O)c3cc(Br)ccc3NS(C)(=O)=O)nn12", 99),
    ("CCCn1nccc1C(=O)N1CCCC[C@H]1c1cc2nc(N3CC[C@H](N)C3)c(C)cn2n1", 99),
    ("Cc1cn2nc([C@@H]3CCCCN3C(=O)c3cnccn3)cc2nc1N1CC[C@H](N)C1", 99),
]

Record "Cc1cn2nc([C@@H]3CCCCN3C(=O)c3cccc(OC(C)C)c3)cc2nc1N1CC[C@H](N)C1" / RSV strain A2, inhibition at 0.5 µM recorded as 100

Record "C[C@H]1CC[C@@H](c2cc3nc(N4CC(N)C4)cc(N4CCOCC4)n3n2)N(C(=O)c2cc(Cl)ccc2NS(C)(=O)=O)C1" / RSV strain A2, inhibition at 0.5 µM recorded as 100

Record "Cc1cn2nc([C@@H]3CCCCN3C(=O)c3cn4ccsc4n3)cc2nc1N1CC[C@H](N)C1" / RSV strain A2, inhibition at 0.5 µM recorded as 100

Record "CS(=O)(=O)Nc1ccc(Cl)cc1C(=O)N1CCCC[C@H]1c1cc2nc(N3CCCO3)cc(N3CCOCC3)n2n1" / RSV strain A2, inhibition at 0.5 µM recorded as 99

Record "COc1ccc(C(=O)N2CCCC[C@H]2c2cc3nc(N4CC[C@H](N)C4)c(C)cn3n2)cc1Cl" / RSV strain A2, inhibition at 0.5 µM recorded as 99

Record "Cc1cn2nc([C@@H]3CCCCN3C(=O)c3cc4ncccn4n3)cc2nc1N1CC[C@H](N)C1" / RSV strain A2, inhibition at 0.5 µM recorded as 100

Record "Cc1cn2nc([C@@H]3CCCCN3C(=O)c3cc(Cl)ccc3NS(C)(=O)=O)cc2nc1N1CCC(N)CC1" / RSV strain A2, inhibition at 0.5 µM recorded as 100

Record "CS(=O)(=O)Nc1ccc(Cl)cc1C(=O)N1CCCC[C@H]1c1cc2nc(N3CCC3)cc(N3CCC(O)CC3)n2n1" / RSV strain A2, inhibition at 0.5 µM recorded as 100

Record "CS(=O)(=O)Nc1ccc(Cl)cc1C(=O)N1CCCC[C@H]1c1cc2nc(N3CC(O)C3)cc(N3CCOCC3)n2n1" / RSV strain A2, inhibition at 0.5 µM recorded as 100

Record "Cc1cn2nc([C@@H]3CCCCN3C(=O)c3cccc(Cl)c3C)cc2nc1N1CC[C@H](N)C1" / RSV strain A2, inhibition at 0.5 µM recorded as 99

Record "Cc1ccc(C(=O)N2CCCC[C@H]2c2cc3nc(N4CC[C@H](N)C4)c(C)cn3n2)c(O)c1" / RSV strain A2, inhibition at 0.5 µM recorded as 64

Record "Cc1cn2nc([C@@H]3CCCCN3C(=O)c3cc(Cl)cnc3O)cc2nc1N1CC[C@H](N)C1" / RSV strain A2, inhibition at 0.5 µM recorded as 100

Record "Cc1ccc(NS(C)(=O)=O)c(C(=O)N2CCCC[C@H]2c2cc3nc(N4CCC4)cc(N4CCOCC4)n3n2)c1" / RSV strain A2, inhibition at 0.5 µM recorded as 100

Record "CC(=O)Nc1ccc(C)cc1C(=O)N1CCCC[C@H]1c1cc2nc(N3CC(N)C3)c(C)cn2n1" / RSV strain A2, inhibition at 0.5 µM recorded as 100

Record "Cc1cn2nc([C@@H]3CCCCN3C(=O)c3cc(F)ccc3Cl)cc2nc1N1CC[C@H](N)C1" / RSV strain A2, inhibition at 0.5 µM recorded as 100

###

Measured inhibition at 0.5 µM of individual entries
- Tested on: RSV strain A2
- test_protocol: RSV antiviral cytoprotection assay in Hep2 cells (96-well and 384-well format, Cell TiterGlo read-out)
- Type: cell-based, Respiratory Syncytial Virus (RSV)
- setup_conditions: human respiratory syncytial virus, HEp-2, 0.5 uM; RSV-induced cytopathic effect in Hep2 cells; calculated from fitted dose response curve, normalized to 0% and 100%
Reply with just the number (in %).

Record excerpt, results attached:
# structure_notation, quantity_name, test_value
measured = [
    ("CS(=O)(=O)Nc1ccc(Cl)cc1C(=O)N1CCCC[C@H]1c1cc2nc(N3CC(O)C3)cc(N3CC(O)C3)n2n1", "inhibition at 0.5 µM", 100),
    ("Cc1cn2nc([C@@H]3CCCCN3C(=O)c3cc(Cl)ccc3NS(C)(=O)=O)cc2nc1N1CC(C)(O)C1", "inhibition at 0.5 µM", 97),
    ("CC(=O)c1cccc(C(=O)N2CCCC[C@H]2c2cc3nc(N4CC[C@H](N)C4)c(C)cn3n2)c1", "inhibition at 0.5 µM", 100),
]

Entry under test: "Cc1cn2nc([C@@H]3CCCCN3C(=O)c3cc(Cl)ccc3NS(C)(=O)=O)cc2nc1NCCNCCO" . Its inhibition at 0.5 µM was 99

Entry under test: "Cc1cn2nc([C@@H]3CCCCN3C(=O)c3cccc4c3OCC4)cc2nc1N1CC[C@H](N)C1" . Its inhibition at 0.5 µM was 100
